Test system: human α2C receptor (Homo sapiens)
Sequence (P18825 whole entry): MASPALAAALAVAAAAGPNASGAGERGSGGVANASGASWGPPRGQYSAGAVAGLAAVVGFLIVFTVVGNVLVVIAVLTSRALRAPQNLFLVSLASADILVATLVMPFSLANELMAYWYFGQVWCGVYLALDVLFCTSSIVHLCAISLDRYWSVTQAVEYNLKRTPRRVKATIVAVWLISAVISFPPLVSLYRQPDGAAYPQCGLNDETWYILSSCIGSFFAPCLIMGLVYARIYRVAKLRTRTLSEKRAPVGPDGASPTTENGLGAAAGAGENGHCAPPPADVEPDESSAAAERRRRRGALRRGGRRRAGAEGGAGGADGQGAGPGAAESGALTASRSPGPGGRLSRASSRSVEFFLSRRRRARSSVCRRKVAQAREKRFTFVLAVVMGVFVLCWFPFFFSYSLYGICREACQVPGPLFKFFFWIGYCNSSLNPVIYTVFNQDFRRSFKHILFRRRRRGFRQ
Experimental details: FLIPR Ca+2 influx assay, α2C
Test parameters: HEK 293 cells stably expressing human α2C receptor and chimeric G protein Gqi5
Observation type: EC50 (µM)
Give bare numbers, in µM.

- Compound: "CCN(Cc1ccncc1)C1CCc2cccc(O)c2C1 (centres unmarked)"
  EC50, µM: 6.7
- Compound: "CCCN(Cc1ccncc1)C1CCc2cccc(OC)c2C1 (centres unmarked)"
  EC50, µM: 2.15
- Compound: "CCCN(Cc1ccncc1)[C@@H]1CCc2cccc(OC)c2C1"
  EC50, µM: 0.557
- Compound: "CCN(Cc1ccncc1)C1CCc2cccc(OC)c2C1 (centres unmarked)"
  EC50, µM: 0.253

Next compound, please.
Recorded EC50 for CCN(Cc1cccnc1)C1CCc2cccc(OC)c2C1 (centres unmarked) , please?
0.652
